Numbers sourced from ChEMBL document CHEMBL5244263.

Biological target: Prothrombin (Homo sapiens)
Test: Inhibition of human thrombin at 500 uM by chromogenic substrate hydrolysis assay
The source made the active and inactive calls. No cut-off for these calls is given here.
RECORDED METRIC: inhibition

[[record]]
structure_as_smiles = "O=c1c2ccccc2nc(-c2cccc(OS(=O)(=O)O)c2)n1C/C=C/Cn1c(-c2cccc(OS(=O)(=O)O)c2)nc2ccccc2c1=O"
value = "inactive"

[[record]]
structure_as_smiles = "O=c1c2ccccc2nc(-c2ccc(OS(=O)(=O)O)cc2)n1CCCCCn1c(-c2ccc(OS(=O)(=O)O)cc2)nc2ccccc2c1=O"
value = "inactive"

[[record]]
structure_as_smiles = "O=c1c2ccccc2nc(-c2cccc(OS(=O)(=O)O)c2)n1CCCCCn1c(-c2cccc(OS(=O)(=O)O)c2)nc2ccccc2c1=O"
value = "inactive"


* * *

Target: Coagulation factor IX (Homo sapiens)
Assay: Inhibition of human FIXa at 500 uM by chromogenic substrate hydrolysis assay
Activity calls are given as the source filed them. No cut-off for these calls is given here.
RECORDED METRIC: inhibition

A selection of reference data follows.
[[record]]
structure_as_smiles = "O=c1c2ccccc2nc(-c2cccc(OS(=O)(=O)O)c2)n1CCOCCn1c(-c2cccc(OS(=O)(=O)O)c2)nc2ccccc2c1=O"
value = "inactive"

[[record]]
structure_as_smiles = "O=c1c2ccccc2nc(-c2ccc(OS(=O)(=O)O)cc2)n1CCCCCCn1c(-c2ccc(OS(=O)(=O)O)cc2)nc2ccccc2c1=O"
value = "inactive"

[[record]]
structure_as_smiles = "O=c1c(OS(=O)(=O)O)c(-c2ccc(OS(=O)(=O)O)c(OS(=O)(=O)O)c2)oc2cc(OS(=O)(=O)O)cc(OCc3cn(CCCCCCCCCCn4c(-c5ccc(OS(=O)(=O)O)cc5)nc5ccccc5c4=O)nn3)c12"
value = "inactive"

[[record]]
structure_as_smiles = "O=c1c2ccccc2nc(-c2ccc(OS(=O)(=O)O)cc2)n1CCCCCCCCCCn1c(-c2ccc(OS(=O)(=O)O)cc2)nc2ccccc2c1=O"
value = "inactive"


# query: inhibition of entry O=c1c2ccccc2nc(-c2cccc(OS(=O)(=O)O)c2)n1Cc1ccc(Cn2c(-c3cccc(OS(=O)(=O)O)c3)nc3ccccc3c2=O)cc1
inactive

Tell me the measured inhibition of O=c1c2ccccc2nc(-c2ccc(OS(=O)(=O)O)cc2)n1CCCCCCCCCn1cc(Cn2c(-c3ccc(OS(=O)(=O)O)cc3)nc3ccccc3c2=O)nn1 , please.
inactive

Consider the compound O=c1c2ccccc2nc(-c2cccc(OS(=O)(=O)O)c2)n1Cc1ccccc1Cn1c(-c2cccc(OS(=O)(=O)O)c2)nc2ccccc2c1=O and give its measured inhibition.
inactive

Name the recorded inhibition for O=c1c2ccccc2nc(-c2ccc(OS(=O)(=O)O)cc2)n1CCCCCCCCCCCn1c(-c2ccc(OS(=O)(=O)O)cc2)nc2ccccc2c1=O .
inactive

# input compound: O=c1c2ccccc2nc(-c2ccc(OS(=O)(=O)O)cc2)n1Cc1ccccc1Cn1c(-c2ccc(OS(=O)(=O)O)cc2)nc2ccccc2c1=O ; wanted: its inhibition
inactive

What value of inhibition has been reported for the following compound? O=c1c2ccccc2nc(-c2ccc(OS(=O)(=O)O)cc2)n1CCCCCCCCCCCn1cc(Cn2c(-c3ccc(OS(=O)(=O)O)cc3)nc3ccccc3c2=O)nn1
inactive

Which value of inhibition has been reported for O=c1c(OS(=O)(=O)O)c(-c2ccc(OS(=O)(=O)O)c(OS(=O)(=O)O)c2)oc2cc(OS(=O)(=O)O)cc(OCc3cn(CCCCCCCCCn4c(-c5ccc(OS(=O)(=O)O)cc5)nc5ccccc5c4=O)nn3)c12 in the records?
inactive

Entry under review: O=c1c2ccccc2nc(-c2cccc(OS(=O)(=O)O)c2)n1CCCCCn1c(-c2cccc(OS(=O)(=O)O)c2)nc2ccccc2c1=O . Reported inhibition?
inactive

Quick check: inhibition of O=c1c2ccccc2nc(-c2cccc(OS(=O)(=O)O)c2)n1Cc1cccc(Cn2c(-c3cccc(OS(=O)(=O)O)c3)nc3ccccc3c2=O)c1 ?
inactive

For O=c1c(OS(=O)(=O)O)c(-c2ccc(OS(=O)(=O)O)c(OS(=O)(=O)O)c2)oc2cc(OS(=O)(=O)O)cc(OCc3cn(CCCCCCCCn4c(-c5ccc(OS(=O)(=O)O)cc5)nc5ccccc5c4=O)nn3)c12 , what is its reported inhibition?
inactive
